kcat/Km for assorted proteins
substrate: CCCCCCCC(=O)Oc1ccc([N+](=O)[O-])cc1; assay: purified protein; format: biochemical, Dorea formicigenerans; conditions: 10 mM Tris-HCl pH 8.4, 2.5% Triton X-100, 40 °C

[
  {
    "Protein": "DfFAE (Dorea formicigenerans; W255A) (protein, E. coli T7; trimeric by SEC (117 kDa)) MNQKKECMDVHVNGLKFHVQTFGSGVPIIMIMGLGAPGDKWKHNYELLSKWFWCIVPDNRGAGLSDKPEAESYTTEQMADDIIGIMDALDIKKAHVMGVSMGGAIAQQVALKVPDRVLSLILTSTFASVSPAFKKALNLICELKEDTDPAVLKQLNLWMTYGQYTQIHHPEKIEKSIEEDAAYPYPMPVYAYKAQCGACLSHNTAGRLHELKMPVLIAAGAKDLFMNIEKTMELVHGIPQAEFYLAPEGGHVHQAEYPEPYDSVVVGFLMKHTN",
    "kcat/Km / M⁻¹ s⁻¹": 16100
  },
  {
    "Protein": "DfFAE (Dorea formicigenerans) (protein, E. coli T7; trimeric by SEC (117 kDa)) MNQKKECMDVHVNGLKFHVQTFGSGVPIIMIMGLGAPGDKWKHNYELLSKWFWCIVPDNRGAGLSDKPEAESYTTEQMADDIIGIMDALDIKKAHVMGVSMGGAIAQQVALKVPDRVLSLILTSTFASVSPAFKKALNLICELKEDTDPAVLKQLNLWMTYGQYTQIHHPEKIEKSIEEDAAYPYPMPVYAYKAQCGACLSHNTAGRLHELKMPVLIAAGAKDLFMNIEKTMELVHGIPQAEFYLAPEGGHVHQWEYPEPYDSVVVGFLMKHTN",
    "kcat/Km / M⁻¹ s⁻¹": 354
  },
  {
    "Protein": "DfFAE (Dorea formicigenerans; V252A) (protein, E. coli T7; trimeric by SEC (117 kDa)) MNQKKECMDVHVNGLKFHVQTFGSGVPIIMIMGLGAPGDKWKHNYELLSKWFWCIVPDNRGAGLSDKPEAESYTTEQMADDIIGIMDALDIKKAHVMGVSMGGAIAQQVALKVPDRVLSLILTSTFASVSPAFKKALNLICELKEDTDPAVLKQLNLWMTYGQYTQIHHPEKIEKSIEEDAAYPYPMPVYAYKAQCGACLSHNTAGRLHELKMPVLIAAGAKDLFMNIEKTMELVHGIPQAEFYLAPEGGHAHQWEYPEPYDSVVVGFLMKHTN",
    "kcat/Km / M⁻¹ s⁻¹": 5200
  },
  {
    "Protein": "DfFAE (Dorea formicigenerans; P149A) (protein, E. coli T7; trimeric by SEC (117 kDa)) MNQKKECMDVHVNGLKFHVQTFGSGVPIIMIMGLGAPGDKWKHNYELLSKWFWCIVPDNRGAGLSDKPEAESYTTEQMADDIIGIMDALDIKKAHVMGVSMGGAIAQQVALKVPDRVLSLILTSTFASVSPAFKKALNLICELKEDTDAAVLKQLNLWMTYGQYTQIHHPEKIEKSIEEDAAYPYPMPVYAYKAQCGACLSHNTAGRLHELKMPVLIAAGAKDLFMNIEKTMELVHGIPQAEFYLAPEGGHVHQWEYPEPYDSVVVGFLMKHTN",
    "kcat/Km / M⁻¹ s⁻¹": 2510
  }
]
